Assign protein stability index to each entry below.
B1: RSPH3 (parent)
chain: KAASLARNLAKRRRTYLGGAAGRS

Variants of: B1
Assay: protein stability index of a GFP-peptide fusion (GPS, HEK-293T) (PSI 1-6); higher = more stable;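 note: lentivirally expressed fusions sorted by FACS into six bins by GFP to DsRed ratio, PSI derived from sequencing read proportions per bin multiplied by bin number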
Settings: c terminus: a fixed tail appended

Here are 4 variants together with their reported answers.
K11R :: 2.91
A20R :: 2.98
Y16G :: 3.03
G19R :: 2.93

Give protein stability index for all variants that follow.
1. A3D
2. A10S
3. Y16P
4. A3R

1. 3.02
2. 2.91
3. 3.04
4. 3.01
